Test system: Platelet-activating factor receptor (Oryctolagus cuniculus)
Test: Competitive inhibition of PAF-induced platelet aggregation was measured as IC50 ratio is (1000 x the IC50 of the test compound divided by the IC50 of a standard)
readout.type: IC50 ratio

Prompt: What value of IC50 ratio has been recorded for this entry: CCCCCCOc1c(Cl)cc(C(=O)OCCCC[N+](C)(C)C)cc1OC
Response: 263

I = CCCCCCOc1c(C)cc(C(=O)OCCCC[N+](C)(C)C)cc1C
II = CCCCCCOc1ccc(C(=O)OCCCC[N+](C)(C)C)cc1
Prompt: // compare measured IC50 ratio between I and II ; output the lower one Write the label of whichever entry you select.
Response: I
(I: 265, II: 1400)

###

System: Platelet-activating factor receptor (Oryctolagus cuniculus)
Test: Competitive inhibition of PAF-induced platelet aggregation was measured as IC50 ratio is (1000 x the IC50 of the test compound divided by the IC50 of a standard)
readout.type: IC50 ratio

Sample answers from the record:
Prompt: Looking for the measured IC50 ratio of CCCCCCCCOc1c(OC)cc(C(=O)OCCCC[N+](C)(C)C)cc1OC , can you help?
Response: 103

Prompt: Try CCCCCCOc1c(OC)cc(OC(=O)CCCC[N+](C)(C)C)cc1OC.[I-] next.
Response: 833

Prompt: // repeat for CCCCCCOc1c(OC)cc(C(=O)OCCCC[N+](C)(C)C)cc1OC.[I-] and report
Response: 164

Prompt: Moving on to COc1cc(C(=O)OCCCC[N+](C)(C)C)cc(OC)c1OCc1ccccc1.[I-]
Response: 533

Prompt: And then CCCCCCOc1c(OC)cc(C(=O)OCC[N+](C)(C)C)cc1OC.[I-] , what is it?
Response: 1000

P = CCCCOc1c(OC)cc(C(=O)OCC[N+](C)(C)C)cc1OC.[I-]
Q = CCCCCCOc1c(OC)cc(C(=O)OCCc2scnc2C)cc1OC
R = CCCCCCOc1c(OC)cc(CC(=O)OCCC[N+](C)(C)C)cc1OC
Prompt: Please give the order of these molecules when sorted by IC50 ratio, largest value leading. Please respond by ranking the labels in the order requested.
Response: P, R, Q
(P: 3370, R: 820, Q: 116)

I = CCCCCCOc1c(OC)cc(C=CCCCC[N+](C)(C)C)cc1OC.[I-]
II = CCCCCCOc1c(OC)cc(C(=O)OCCc2sc[n+](C)c2C)cc1OC.[I-]
Prompt: Select the item with the higher value of IC50 ratio from the options I and II listed. To answer, give the label that identifies your chosen option.
Response: I

###

System: Platelet-activating factor receptor (Oryctolagus cuniculus)
Assay: Competitive inhibition of PAF-induced platelet aggregation was measured as IC50 ratio is (1000 x the IC50 of the test compound divided by the IC50 of a standard)
readout.type: IC50 ratio

// below: answered compounds
Prompt: So what does the record say about IC50 ratio for COc1cc(C(=O)OCCCC[N+](C)(C)C)cc(OC)c1OCCC1CCCC1 ?
Response: 203

Prompt: Can you check CCCCCCOc1c(OC)cc(C(=O)OCCC[N+](C)(C)C)cc1OC.[I-] next?
Response: 7000

Prompt: # repeat for CCCCCCOc1c(OC)cc(C(=O)OCCCCN(C)C)cc1OC
Response: 1500

Prompt: What do you get for CCCCCCOc1c(OC)cc(C(=O)OCc2ccccc2C[N+](C)(C)C)cc1OC ?
Response: 144

Prompt: And what about the compound CCCCCOc1c(OC)cc(C(=O)OCCCC[N+](C)(C)C)cc1OC.[I-] ?
Response: 540

Prompt: What do you get for CCCCCCOc1c(OC)cc(CCCCc2scnc2C)cc1OC ?
Response: 14.7

Prompt: Now consider CCCCCCOc1c(OC)cc(C(=O)OCCCC[n+]2ccsc2)cc1OC .
Response: 48

Prompt: Also CCCCCCCCCCOc1c(OC)cc(C(=O)OCC[N+](C)(C)C)cc1OC , if possible.
Response: 153

a = CCCCCCOc1c(OC)cc(C(=O)OCCCC[n+]2cccc3ccccc32)cc1OC.[Cl-]
b = CCCCCCOc1c(OC)cc(/C=C/CCCC[N+](C)(C)C)cc1OC.[I-]
c = CCCCCCOc1ccc(C(=O)OCCCC[N+](C)(C)C)cc1OC.[I-]
d = CCCCCCCOc1c(OC)cc(C(=O)OCCCC[N+](C)(C)C)cc1OC.[I-]
Prompt: Place the items in sequence of falling IC50 ratio. Enter labels, ranked according to the request.
Response: c, d, b, a

P = CCCCCCOc1c(OC)cc(C(=O)Oc2ccc3c(ccc[n+]3C)c2)cc1OC
Q = COc1cc(C(=O)OCCCC[N+](C)(C)C)cc(OC)c1OCC1CCCCC1.[I-]
R = CCCCCCOc1c(OC)cc(C(=O)OCCCCCC[N+](C)(C)C)cc1OC
Prompt: Rank descending by IC50 ratio. To answer, write out the labels according to the requested order.
Response: Q, R, P
(Q: 443, R: 270, P: 13)

A = CCCCCCOc1c(OC)cc(C(=O)Oc2cccc3ccc[n+](C)c23)cc1OC.[I-]
B = CCCCCCOc1c(OC)cc(C(=O)OCCCC[N+](CC)(CC)CC)cc1OC.[I-]
C = CCCCCCOc1c(OC)cc(CCCCCC[N+](C)(C)C)cc1OC
Prompt: Hey, quick one: sort these by IC50 ratio, largest value first please. # output: labels, in the requested order
Response: B, C, A

1 = CCCCCCOc1c(OC)cc(C(=O)OCCCC[n+]2ccccc2)cc1OC.[I-]
2 = CCCCCCCCCCCCCCCCOc1c(OC)cc(C(=O)OCCCC[N+](C)(C)C)cc1OC
Prompt: IC50 ratio comparison. Which is larger, 1 or 2 ? Refer to your chosen item by its label in the answer.
Response: 1
(1: 107, 2: 35)
